- method: Stimulation of growth hormone secretion in Wistar rat pituitary cells measured after 15 mins
- Format: functional, cell-based
- assayContext: Pituitary gland cell, 0.25 h
quantityKind: pEC50
The quantity pEC50 is defined as the negative base-10 logarithm of the molar concentration.

INPUT: What does the data say about its pEC50? Entry: CN1N=C2CCN(C(=O)[C@@H](COCc3ccccc3)NC(=O)C(C)(C)N)C[C@@]2(Cc2ccccc2)C1=O
OUTPUT: 8.52

These entries and their values trace back to ChEMBL document CHEMBL5113387.
